- systemTested: STAT3 (Homo sapiens)
- experimentNotes: STAT3/pY-peptide binding surface plasmon resonance (SPR) assay
- recordedConditions: STAT3 200 nM, EGFR pY1068 dodecapeptide; mean, n ≥ 2; read-out: pY-Peptide Binding (SPR) IC50
pIC50: −log10 of the molar value.
reportedMetric: pIC50

See these solved cases before continuing.
molecule: Cc1cc(S(=O)(=O)Nc2cc3c4c(oc3c3ccccc23)CCCC4=O)ccc1Cl
measValue: 4.87
--
molecule: CC(=O)Oc1c(Br)cc(N(C(C)=O)S(=O)(=O)c2ccc(C)cc2)c2ccccc12
measValue: 4.15
--
molecule: Cc1ccc(S(=O)(=O)Nc2cc3c4c(oc3c3ccccc23)CCC(C(C)(C)C)C4)c(C)c1 (stereo not drawn)
measValue: 4.05
--
molecule: CC(C)OC(=O)C(C(=O)C(F)(F)F)c1cc(NS(=O)(=O)c2ccccc2)c2ccccc2c1O (stereo not drawn)
measValue: 4.80
--
molecule: COCc1oc2c(cc(NS(=O)(=O)c3ccc(F)cc3)c3ccccc32)c1C(=O)OC
measValue: 4.56

a. CC(C)OC(=O)C(C(=O)C(F)(F)F)c1cc(NS(=O)(=O)c2ccc3c4c(cccc24)C(=O)N3)c2ccccc2c1O (stereo not drawn)
b. CC1(C)CC(=O)c2c(oc3c2cc(NS(=O)(=O)c2ccc(Br)cc2)c2ccccc23)C1
[Q] Larger number for pIC50: a , or b ? Reply with the label of the item you choose.
[A] a

A. CCOC(=O)c1c(C)oc2c1cc(NS(=O)(=O)c1cccc3cccnc13)c1ccccc12
B. CC(C)OC(=O)C(C(=O)C(F)(F)F)c1cc(NS(=O)(=O)c2ccc(F)cc2)c2ccccc2c1O (stereo not drawn)
[Q] I need your help: which of the pair A , B has higher pIC50? The response must carry the label of the picked entry.
[A] B

P. Cc1cc(C)c(S(=O)(=O)Nc2cc(C(C(=O)OC(C)C)C(=O)C(F)(F)F)c(O)c3ccccc23)c(C)c1 (stereo not drawn)
Q. Cc1cc(C)c(S(=O)(=O)Nc2cc(Sc3nc[nH]n3)c(O)c3ccccc23)cc1C
R. Cc1cc(C)c(C)c(S(=O)(=O)Nc2cc(SCC(=O)O)c(O)c3ccccc23)c1C
[Q] Arrange by pIC50, high to low. Form entry: ranked labels (order as requested).
[A] Q, R, P
(Q: 5.46, R: 5.06, P: 4.76)

a. COc1ccc(S(=O)(=O)Nc2cc(Sc3cccc4cccnc34)c(O)c3ccccc23)cc1
b. CC(C)OC(=O)C(C(=O)C(F)(F)F)c1cc(NS(=O)(=O)c2ccc(Cl)cc2)c2ccccc2c1O (stereo not drawn)
c. CC(C)(C)c1ccc(S(=O)(=O)Nc2cc3c4c(oc3c3ccccc23)CCCC4=O)cc1
d. COc1ccc(OC)c(S(=O)(=O)Nc2cc(Sc3ccccc3)c(O)c3ccccc23)c1
e. CC(=O)Nc1c([N+](=O)[O-])cc(N(C(C)=O)S(=O)(=O)c2ccccc2)c2ccccc12
[Q] Arrange the 5 molecules from largest to smallest pIC50. Please reply with the labels ordered as requested. Many thanks.
[A] d, b, a, c, e
(d: 5.26, b: 4.94, a: 4.73, c: 4.50, e: 3.55)

###

- experimentNotes: in vivo
- recordedConditions: mouse
reportedMetric: MTD at 14 days (mg/kg/day)
Your answer should be a plain number; it is taken to be in mg/kg/day.

[Q] // returns reported MTD at 14 days for input COc1ccc(S(=O)(=O)Nc2cc(-c3c(O)ccc4ccccc34)c(O)c3ccccc23)cc1 [Compound C188-9]
[A] 100

###

- systemTested: STAT3 (Homo sapiens, UniProt P40763)
- Sequence (P40763 whole entry, species assumed): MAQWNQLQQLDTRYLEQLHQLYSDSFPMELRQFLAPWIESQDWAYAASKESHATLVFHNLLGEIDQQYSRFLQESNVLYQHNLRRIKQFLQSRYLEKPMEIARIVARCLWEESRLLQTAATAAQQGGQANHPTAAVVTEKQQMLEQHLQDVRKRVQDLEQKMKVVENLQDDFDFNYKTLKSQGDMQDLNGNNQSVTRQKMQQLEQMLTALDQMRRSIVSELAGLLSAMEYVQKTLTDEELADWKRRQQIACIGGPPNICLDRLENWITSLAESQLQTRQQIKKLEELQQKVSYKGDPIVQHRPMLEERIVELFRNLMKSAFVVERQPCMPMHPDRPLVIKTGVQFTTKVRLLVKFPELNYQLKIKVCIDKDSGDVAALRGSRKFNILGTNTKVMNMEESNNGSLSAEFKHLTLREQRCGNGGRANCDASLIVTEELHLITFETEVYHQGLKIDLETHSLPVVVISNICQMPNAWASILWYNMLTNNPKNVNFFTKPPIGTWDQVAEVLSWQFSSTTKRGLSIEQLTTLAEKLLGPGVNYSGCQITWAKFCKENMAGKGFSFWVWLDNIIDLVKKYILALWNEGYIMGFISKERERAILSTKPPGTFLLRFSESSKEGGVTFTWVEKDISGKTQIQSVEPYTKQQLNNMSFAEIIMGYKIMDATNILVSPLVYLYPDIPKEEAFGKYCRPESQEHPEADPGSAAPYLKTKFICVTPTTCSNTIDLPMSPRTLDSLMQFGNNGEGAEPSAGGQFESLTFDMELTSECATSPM
- experimentNotes: STAT3/pY-peptide binding surface plasmon resonance (SPR) assay
- recordedConditions: STAT3 200 nM, EGFR pY1068 dodecapeptide; mean, n ≥ 2; read-out: pY-Peptide Binding (SPR) IC50
- Source text: The equilibrium binding levels obtained ± compound were normalized (resonance obtained in the presence of compound ÷ the resonance obtained in the absence of compound × 100) and plotted against Log [nM] […] B. Inhibition of ligand-stimulated STAT phosphorylation, measured by phosphoflow. […] Cells were permeabilized and stained with Alexa647-pSTAT3, and PE-pSTAT1 antibodies and analyzed on BD LSR2. FCS files were uploaded to Cytobank for pSTAT3 and pSTAT1 quantitation. […]
reportedMetric: IC50 (µM)

compoundStructureString: CC(C)c1ccc(S(=O)(=O)Nc2cc3c4c(oc3c3ccccc23)CCCC4)cc1
units: µM
IC50: 24.5

P. Cc1oc2c(cc(NS(=O)(=O)c3ccc(Cl)cc3)c3ccccc32)c1C(=O)OCc1ccccc1
Q. O=S(=O)(Nc1cc(Sc2nc[nH]n2)c(O)c2ccccc12)c1ccc(Br)cc1
[Q] I need your help: which of the pair P , Q has higher IC50? # answer = label of selected item
[A] P

###

pIC50 overview
- systemTested: pSTAT1 (Tyr-701) (Homo sapiens)
- Construct: endogenous in cells; host or cells: Kasumi-1
- Sequence (P42224 1-750): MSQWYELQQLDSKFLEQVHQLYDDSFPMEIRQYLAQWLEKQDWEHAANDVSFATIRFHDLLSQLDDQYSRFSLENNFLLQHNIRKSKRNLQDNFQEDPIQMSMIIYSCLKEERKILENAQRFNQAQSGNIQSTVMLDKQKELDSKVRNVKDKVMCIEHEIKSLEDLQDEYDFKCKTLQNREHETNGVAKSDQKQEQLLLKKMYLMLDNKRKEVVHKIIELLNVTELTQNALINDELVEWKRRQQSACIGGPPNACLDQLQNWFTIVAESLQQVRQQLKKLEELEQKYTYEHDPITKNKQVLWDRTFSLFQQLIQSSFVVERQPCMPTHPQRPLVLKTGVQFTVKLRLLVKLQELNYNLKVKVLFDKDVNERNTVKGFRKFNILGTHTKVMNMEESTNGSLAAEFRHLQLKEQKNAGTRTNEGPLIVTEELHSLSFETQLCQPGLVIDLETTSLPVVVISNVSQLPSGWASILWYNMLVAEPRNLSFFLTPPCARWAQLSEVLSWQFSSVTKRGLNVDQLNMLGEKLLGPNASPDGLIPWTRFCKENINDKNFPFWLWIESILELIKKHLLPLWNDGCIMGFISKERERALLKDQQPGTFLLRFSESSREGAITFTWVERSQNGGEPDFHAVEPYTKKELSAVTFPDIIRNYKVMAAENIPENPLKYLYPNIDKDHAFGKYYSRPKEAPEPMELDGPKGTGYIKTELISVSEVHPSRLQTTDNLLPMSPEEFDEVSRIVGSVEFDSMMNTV
- experimentNotes: Luminex bead-based assay, G-CSF-induced pSTAT1 in Kasumi-1 cells
- Type: cell-based
- recordedConditions: Figure 2D, Kasumi-1, G-CSF; read-out: Luminex pSTAT1 (Tyr-701) IC50, representative experiment
pIC50 (log units): -log10 of the concentration in mol/L.

compoundStructureString: O=C(O)CSc1cc(NS(=O)(=O)c2ccc(C(=O)O)cc2)c2ccccc2c1O
pIC50: 4.66

For the next question, use this compound.
[Q] What pIC50 value was documented for this compound, COc1ccc(S(=O)(=O)Nc2cc(-c3c(O)ccc4ccccc34)c(O)c3ccccc23)cc1 ?
[A] 5.52

###

- experimentNotes: Maximum tolerated dose in mice
- recordedConditions: mouse, in vivo
reportedMetric: MTD at 14 days (mg/kg/day)
Provide the reading as a plain figure in mg/kg/day.

[Q] What value of MTD at 14 days has been reported for the following molecule? O=C(O)CSc1cc(NS(=O)(=O)c2ccc(C(=O)O)cc2)c2ccccc2c1O
[A] 100

###

- systemTested: STAT3 (Homo sapiens, UniProt P40763)
- experimentNotes: STAT3/pY-peptide binding surface plasmon resonance (SPR) assay
- recordedConditions: STAT3 200 nM, EGFR pY1068 dodecapeptide; mean, n ≥ 2; read-out: pY-Peptide Binding (SPR) IC50
reportedMetric: IC50 (µM)

1. CCOC(=O)c1c(C)oc2c1cc(NS(=O)(=O)c1ccc(C(C)(C)C)cc1)c1ccccc12
2. Cc1cc(C)c(S(=O)(=O)Nc2cc(Cl)c(O)c3ccccc23)cc1C
[Q] Kindly identify the item with the lower IC50 figure among these two: 1 and 2 # respond with the chosen item's label
[A] 2

###

- systemTested: STAT3 (Homo sapiens, UniProt P40763)
- experimentNotes: STAT3/pY-peptide binding surface plasmon resonance (SPR) assay
- recordedConditions: STAT3 200 nM, EGFR pY1068 dodecapeptide; mean, n ≥ 2; read-out: pY-Peptide Binding (SPR) IC50
pIC50: −log10 of the molar value.
reportedMetric: pIC50

a. Cc1cc(C)c(S(=O)(=O)Nc2cc(C(C(=O)OC(C)C)C(=O)C(F)(F)F)c(O)c3ccccc23)cc1C (centres unmarked) [Compound C188-31]
b. CC(C)(C)c1ccc(S(=O)(=O)Nc2cc3sc(=O)oc3c3ccccc23)cc1 [Compound C188-33]
[Q] Which value of pIC50 is smaller, the one for a or the one for b ? # answer = label of selected item
[A] a

P. Cc1ccc(S(=O)(=O)Nc2cc(Sc3nc4ccccc4s3)c(O)c3ccccc23)c(C)c1 [Compound C188-2]
Q. O=S(=O)(Nc1cc(Sc2ccccc2)c(O)c2ccccc12)c1ccc(F)cc1 [Compound C188-16]
[Q] Return label of the item with the larger pIC50. Candidates: P , Q . Could you answer with the label of the item you picked?
[A] Q

A. CC(C)OC(=O)C(C(=O)C(F)(F)F)c1cc(NS(=O)(=O)c2ccc(Br)cc2)c2ccccc2c1O (centres unmarked) [Compound C188-4]
B. Cc1ccc(S(=O)(=O)Nc2cc3sc(=O)oc3c3ccccc23)c(C)c1 [Compound C188-32]
[Q] Could you check which of A and B has a smaller value for pIC50? # answer = label of selected item
[A] B
